Source listed as paper PMC4256047.

biological target: T1, wt-ERβ LBD (wild-type estrogen receptor β ligand-binding domain, amino acids 261–502) (human, UniProt Q92731 261-502); experiment: fluorescence polarisation; fluorescence anisotropy as a1, with BP-2 at 2 molar equivalents of the highest protein concentration; details: both partners purified
T1 construct: also called wild-type ERβ LBD; apo-ERβ
T1 sequence (Q92731 261-502): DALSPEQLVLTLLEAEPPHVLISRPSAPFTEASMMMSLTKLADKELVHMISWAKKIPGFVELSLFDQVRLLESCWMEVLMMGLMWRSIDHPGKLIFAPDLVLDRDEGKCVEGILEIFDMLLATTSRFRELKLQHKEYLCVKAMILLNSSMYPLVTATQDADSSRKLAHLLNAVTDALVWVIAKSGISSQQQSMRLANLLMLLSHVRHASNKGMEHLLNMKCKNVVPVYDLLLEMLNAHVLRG
pKd: −log10 of the molar value. Primed or numbered codes have the meaning given here. Where no end group is shown, it is not given here. fluorescein″ = fluorescein label on the peptide (N-terminal, fluorescein-labeled peptide)
readoutType: pKd

(Q) For {fluorescein″}-RHKILHRLLQEGS (also called fluorescein-labeled SRC-1 NR2 peptide; SRC-1 NR2 peptide; source: synthetic peptide, bought: EZbiolab) [fluorescein-RHKILHRLLQEGS peptide corresponding to the NR box 2-binding motif of SRC-1] , what is its reported pKd?
(A) ≥ 6.00
